All figures here come from the supplement of paper PMC10567573.

Assay: protein stability index of a GFP-peptide fusion (GPS, HEK-293T) (PSI 1-6); higher = more stable;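 further: 24-mer peptide tiles fused after GFP, lentivirally expressed, FACS-sorted into six equal bins by GFP/DsRed ratio, decoded by Illumina sequencing, PSI is the read-weighted mean bin number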
Conditions: treatment: MLN4924 1 uM, 8 h; c terminus: a fixed tail appended
Quick rule for you: protein stability index at 3 or higher means Satisfied, lower means Not satisfied.

Previously resolved entries follow.
- VEGRHLYVLEFSDHPGIHEPLEPE [CPN1]: Satisfied
- RPPLRRVRMSADAMLKALLGSKHK [TNNI2]: Satisfied
- SFCHGSSLKRHLKTHTGEKPHRCH [ZNF449]: Satisfied
- ASRVKLQHLPAQEQWDRLLVLYPT [PLEKHN1]: Not satisfied
- NSEVYLPNINKISMQAVLDYLYTK [RHOBTB1]: Not satisfied
- RRKSEAGSGAASSSGEDKENDGFV [CDC25B]: Satisfied

# evaluate next
IN: Quick check, protein stability index >= 3? RLLELMNQHDTEMKYYIVHLKRHF [DYRK1B]
OUT: Not satisfied

---

Assay: protein stability index of a GFP-peptide fusion (GPS, HEK-293T) (PSI 1-6); higher = more stable
Settings: treatment: DMSO; c terminus: a fixed tail appended
# protein stability index per record follows
Keep the answer to the number alone.

Reference set (2 entries):
- GTTEAATQDGKEQPELPCAMAMGT [PXN]: 5.48
- PGAGSRRRGRMALCGQAAGAASLP [FBXO33]: 2.76

IN: State the recorded protein stability index for this entry: GAGAVSRTCTAPLDRLKVLMQVHA [SLC25A25]
OUT: 2.32

IN: State the recorded protein stability index for this entry: LRNITNSQAPDGRRKSEAGSGAAS [CDC25B]
OUT: 4.89

IN: State the recorded protein stability index for this entry: ISHWHPNITINIVDDHTPWVKGSV [CLPTM1]
OUT: 2.37

IN: State the recorded protein stability index for this entry: FSLLEELKEGMLMKIKQDRASRTY [FSD1]
OUT: 2.63

IN: State the recorded protein stability index for this entry: FPNIASATKFKQLYRSRMNSLEMT [HMOX1]
OUT: 2.37

---

Assay: protein stability index of a GFP-peptide fusion (GPS, HEK-293T) (PSI 1-6); higher = more stable
Conditions: treatment: DMSO; c terminus: a fixed tail appended
Quick rule for you: protein stability index at 3 or higher means label 1, lower means label 0.

IN: Quick check, protein stability index >= 3? RTRDYKKTSLAPYVKVFEHFLENL [PRIM1]
OUT: label 0

IN: Quick check, protein stability index >= 3? KISYIGLMTQSSLETHHYVDCGGN [TMEM106C]
OUT: label 0

IN: Quick check, protein stability index >= 3? APYFERSSSKRYTMSRSLDGASVN [EPB41L3]
OUT: label 1

IN: Quick check, protein stability index >= 3? GSAAKLVCYFTNWAQYRQGEARFL [CHIT1]
OUT: label 0

IN: Quick check, protein stability index >= 3? DETLRSGELLNMIVAVIDSAQLQE [INTS3]
OUT: label 0

IN: Quick check, protein stability index >= 3? SKSGYLRYSCESRIRSYLREVSSY [DFFB]
OUT: label 0

IN: Quick check, protein stability index >= 3? ADDPDDGPVPGTPGLPGSTGNPKS [SPNS1]
OUT: label 1

IN: Quick check, protein stability index >= 3? QGTELWVAERGTTQGCHPAWEPRS [ZNF8]
OUT: label 1

IN: Quick check, protein stability index >= 3? RGRAVLREAGFHQYEVSNFARNGA [RSAD1]
OUT: label 1

IN: Quick check, protein stability index >= 3? TGFIFQKVGKLAATAVGGGFFLLQ [FUNDC2]
OUT: label 0

IN: Quick check, protein stability index >= 3? LNDAKRELRFLLVYLHGDDHQDSD [FAF2]
OUT: label 0

IN: Quick check, protein stability index >= 3? PLDSKENLENPMRRIHSLPQKLLG [CDC25A]
OUT: label 1

IN: Quick check, protein stability index >= 3? KAKKNKDKYVGVSSDSVGGFRYSE [CLINT1]
OUT: label 1

IN: Quick check, protein stability index >= 3? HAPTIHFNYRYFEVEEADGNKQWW [CPOX]
OUT: label 0

IN: Quick check, protein stability index >= 3? IEANFPRRVLPCIPSEEWPNPPTL [FAF2]
OUT: label 0

IN: Quick check, protein stability index >= 3? SQWDVLSGDCDQRFRFPSPILKVQ [RBBP5]
OUT: label 1

IN: Quick check, protein stability index >= 3? MHKHNETSQKIAARAFAQRYLADL [RSPH3]
OUT: label 0

IN: Quick check, protein stability index >= 3? LIQNGGEIDCVDKDGNTPLHVAAR [ANKRD44]
OUT: label 1

IN: Quick check, protein stability index >= 3? LGSSAASTALERPSFLSQTGHGVS [FCHO1]
OUT: label 1

IN: Quick check, protein stability index >= 3? GEQPEPGEAAAGGAAEEARRLEQR [ACBD3]
OUT: label 1

IN: Quick check, protein stability index >= 3? AEEETLSRELEPELRRRRYEYDHW [ALKBH7]
OUT: label 1

IN: Quick check, protein stability index >= 3? EAYIAKQKRLKSKLLDHDNVKYLK [GDAP1]
OUT: label 1

IN: Quick check, protein stability index >= 3? RVEVLTDAGGWVLIDRSGRHFGTI [KCTD13]
OUT: label 0

IN: Quick check, protein stability index >= 3? QCRDLVDEAKKFHLRPELRSQMQG [KLHL12]
OUT: label 1

IN: Quick check, protein stability index >= 3? VNGDGSRENGNNSSDKVRGIETLE [PHTF1]
OUT: label 1

IN: Quick check, protein stability index >= 3? YQELLNVKMALDIEIATYRKLLEG [PRPH]
OUT: label 0
